Origin of values: PubChem BioAssay AID330

# Tested on: P388 leukemia ip, CD2F1 mice, survival T/C
# assay_explanation: NCI In Vivo Anticancer Drug Screen. Data for tumor model P388 Leukemia (intraperitoneal) in CD2F1 (CDF1) mice
# measurement_setup: endpoint: median survival time; dose: 60.0 mg/kg/injection; schedule: Q01DX005 (ip); vehicle: saline with Tween-80; higher = longer survival
Toxic doses and inconclusive results are not listed.
property: T/C

# example entries with known answers
# molecule, recorded_measurement
rows = [
    ("COC(=O)N1C(=O)CO[C@@H]1C(C)(C)C", "103 % of control"),
    ("N=C1N=Nc2nc(C(C(=O)c3cccs3)c3nc4n(c3O)C(=N)N=N4)c(O)n21 (stereo not drawn)", "97 % of control"),
    ("O=C(CCCl)Nc1cccc(CCC(=O)c2ccccc2NC(=O)CCCl)c1", "89 % of control"),
    ("CCCCC/C([O-])=C1/C(=O)N(c2ccccc2)N=C1C.CCCCC/C([O-])=C1/C(=O)N(c2ccccc2)N=C1C.[Cu+2]", "96 % of control"),
    ("Cc1ccnc(NS(=O)(=O)c2ccc(N=Cc3c4ccccc4nc4cc(Cl)ccc34)cc2)n1", "96 % of control"),
]

State its T/C for this molecule: COC(=O)[C@@H]1CON(Cc2ccccc2)C1CC1(C)OCCO1 (stereo partly drawn)
103 % of control

Write down T/C measured for item C[P+](C)(C)C
87 % of control

Item CNC(=O)NNC(=O)c1ccccc1Cl : provide T/C
106 % of control

In one line, give reported T/C of the entry CCOC(=O)C1=C(C)OC(C)(/N=C(\C#N)C(=O)OC)C1c1ccccc1 (stereo not drawn) .
93 % of control

###

# Tested on: P388 leukemia ip, CD2F1 mice, survival T/C
# assay_explanation: NCI In Vivo Anticancer Drug Screen. Data for tumor model P388 Leukemia (intraperitoneal) in CD2F1 (CDF1) mice
# measurement_setup: endpoint: median survival time; dose: 12.5 mg/kg/injection; schedule: Q01DX009 (ip); vehicle: saline; higher = longer survival
Inconclusive results and toxic doses are left out.
property: T/C

Answered cases to consult:
# compound, T/C
data = [
    ("COc1cc(CCN(C)C)c([N+](=O)[O-])cc1OC", "90 % of control"),
    ("CC(CCCN)Nc1cc2c(c3cccnc13)OCCO2 (stereo not given)", "86 % of control"),
    ("CC(=O)NCC[N+](C)(C)C", "100 % of control"),
    ("C[N+](C)(C)Cc1ccccc1", "96 % of control"),
    ("c1ccc(Nc2ccncc2)cc1", "100 % of control"),
    ("[CH3][Sn]1([CH3])[O]P(=O)(c2ccccc2)[O]1", "112 % of control"),
    ("Cc1cc(C)c(N=Cc2cccs2)c(C)c1", "107 % of control"),
    ("C[n+]1c2ccccc2c(N=[N+]=[N-])c2ccccc21", "98 % of control"),
    ("CCCCCC(C)N (stereo not given)", "95 % of control"),
    ("CC(=O)OC12CC[N+]3(C)CCCCC3C1=Nc1ccccc12 (stereo not given)", "110 % of control"),
]

Look up and report measured T/C for this entry: N#CC(C#N)C1C=C/C(=N\O)C1 (stereo not given)
99 % of control

Give the reported T/C for this compound. CCCCCCCCCc1cc(CN2CCCCC2)c(O)c(CN2CCCCC2)c1
112 % of control

Tell us which T/C value is on record for C1OC1CO[C@@H]1CO[C@H]2[C@@H]1OC[C@H]2OCC1CO1 (stereo not given in full)
120 % of control

Give T/C for the following compound: c1cc[n+](CCC2OCCO2)cc1
109 % of control

Look up and report measured T/C for this entry: O=P(Oc1cccc2ccccc12)(N1CC1)N1CC1
95 % of control

Fill in T/C for record COC(=O)NC1CC=CCC1I (stereo not given)
96 % of control

Provide only the value of recorded T/C for S=C(S)N1CCCCC1
86 % of control

Determine from records and report T/C for O=C1CC2C=CC2C1 (stereo not given)
103 % of control

Entry Cn1cnc([N+](=O)[O-])c1Sc1ncn[nH]1 needs its T/C filled in; supply it.
106 % of control

Given CC(=O)Nc1ccc(S(=O)(=O)CC(N)=O)cc1 , respond with its T/C.
105 % of control
